Target: benzodiazepine site of the GABAA receptor
Experiment: Radioligand binding assay, 3H-Ro15-1788 (Flumazenil), purified rat cortical membranes
Conditions: previously determined; used in the Cheng-Prusoff equation; read-out: binding dissociation constant (Kd) of 3H-Ro15-1788
QUANTITY: Kd (nM)
Give a bare numeral; the unit nM is implied.

The compound CCOC(=O)c1ncn2c1CN(C)C(=O)c1cc(F)ccc1-2 showed Kd equal to 1
